// reported neutralization IC80 for each item listed
target: HIV-1 Env of pseudovirus Du172.17 (HIV-1); experiment: cell-based or functional assay
Report as a plain number; the unit µg/mL is understood.

MS-91 (antibody, V domains shown) VH: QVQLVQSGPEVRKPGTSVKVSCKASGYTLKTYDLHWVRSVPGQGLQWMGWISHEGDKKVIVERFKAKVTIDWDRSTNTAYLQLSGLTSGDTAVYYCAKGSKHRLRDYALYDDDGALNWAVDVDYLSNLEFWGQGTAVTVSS VL: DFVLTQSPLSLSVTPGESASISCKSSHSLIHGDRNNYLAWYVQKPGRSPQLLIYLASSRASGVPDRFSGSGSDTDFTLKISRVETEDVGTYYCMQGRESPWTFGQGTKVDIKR : 23.9

Please find the next binder below.
// query neutralization IC80 value for entry MS-81 (antibody, V domains shown) VH: QVQLVQSGPEVRKPGTSVKVSCKAPGNTLKTYDLHWVRSVPGQGLQWMGWISHEGDKKVIVERFKAKVTIDWDRSTNTAYLELSGLTSGDTAVYYCAKGSKHRLRDYALYDDDGALNWAVDVDYLSNLEFWGQGTAVTVSS VL: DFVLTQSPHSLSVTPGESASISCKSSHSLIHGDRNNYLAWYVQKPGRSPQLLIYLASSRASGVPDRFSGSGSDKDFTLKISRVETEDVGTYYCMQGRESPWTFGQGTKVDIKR
6.37
